Literature compilation of IC50 measurements on High affinity nerve growth factor receptor (Homo sapiens, UniProt P04629).

Before answering, review these 6 worked examples.
input: What IC50 appears in the records for this compound with High affinity nerve growth factor receptor (Homo sapiens, UniProt P04629)? COCCN1C[C@@H](n2ccc(F)c2)[C@H](NC(=O)Nc2c(C)c(-c3cnc(C4(F)CNC4)nc3)nn2-c2ccccc2)C1
output: 1.03 nM

input: Try CN1CCc2occ(C(=O)Nc3ccc(N4CCCCC4)cc3)c2C1=O next.
output: 195 nM

input: Now the compound NC(=O)c1ccc(-c2ccc3c(N)n[nH]c3c2)cc1N1CCN(CCN2CCOCC2)CC1
output: 13500 nM

input: COCCN1C[C@@H](NC(=O)Nc2c3c(nn2-c2ccccc2)C(C)(C)CC3)[C@H](c2ccccc2)C1 , same question.
output: < 100 nM

input: Also need O=C(Nc1ccc(Oc2ccnc3ccc4c(c23)OCCO4)c(F)c1)c1cccn(-c2ccc(F)cc2)c1=O , thanks.
output: < 50 nM

input: Then this compound: CCOc1ncnc2[nH]cc(Cc3ccc(Nc4cnn(CC)c4)nc3F)c12
output: < 100 nM

Report IC50 for every entry below.
1. COCCN1C[C@@H](NC(=O)Nc2ccc(C#N)nc2-c2ccccc2)[C@H](c2ccc(F)c(F)c2)C1
2. C[C@H]1CNC(=O)c2cnn3cc(-c4ccc(C(F)(F)F)cc4)c(nc23)NCc2cc(F)cnc2O1
3. CNC(=O)c1ccc(-c2cc(OC3CCOCC3)c3c(C)n[nH]c3c2)cc1N1CCN(Cc2cccnc2)CC1
4. Cn1cc(C(=O)Nc2ccc(Oc3ccnc4cc(OCC(C)(C)O)c5c(c34)OCCO5)cc2)c(=O)n(-c2ccc(F)cc2)c1=O
5. Cc1cnc2[nH]cc(Cc3cnc(Nc4ccc(C(O)(C(F)(F)F)C(F)(F)F)cc4)nc3)c2c1

output:
1. < 100 nM
2. > 10000 nM
3. 3.75 nM
4. < 50 nM
5. < 100 nM

Would you be so kind as to report IC50 for each listed record?
1. COCCN1C[C@@H](NC(=O)Nc2cc(-c3ccc(C#N)cc3)nn2C)[C@H](c2ccc(F)c(F)c2)C1
2. CC(=O)N1CCC(Oc2cc(-c3ccc(C(N)=O)c(N4CCN(c5ccccc5)CC4)c3)cc3[nH]nc(N)c23)CC1
3. Cc1cnc2[nH]cc(Cc3cnc(Nc4ccc(C(F)(F)F)nc4)nc3)c2c1
4. Cc1cnc(-c2ccccc2)c(NC(=O)N[C@@H]2c3cc(Br)ccc3C(C)(C)C[C@H]2O)c1 (racemic)

output:
1: < 100 nM; 2: 8.45 nM; 3: < 1000 nM; 4: ≤ 50 nM
